details: in sec-butanol, 308.15 K
ASSAY_READOUT: solubility (mole fraction)

• CN1C(C(=O)Nc2ccccn2)=C(O)c2sc(Cl)cc2S1(=O)=O = 4.19e-05

###

settings: in ethanol, 323.15 K
ASSAY_READOUT: solubility (mole fraction)

• CN1C(C(=O)Nc2ccccn2)=C(O)c2sc(Cl)cc2S1(=O)=O = 3.22e-05

###

settings: in ethanol, 303.15 K
ASSAY_READOUT: solubility (mole fraction)

* CN1C(C(=O)Nc2ccccn2)=C(O)c2sc(Cl)cc2S1(=O)=O | 1.16e-05

###

conditions: in n-butanol, 313.15 K
ASSAY_READOUT: solubility (mole fraction)

• CN1C(C(=O)Nc2ccccn2)=C(O)c2sc(Cl)cc2S1(=O)=O = 1.99e-05
